Please provide measured AUC for the entries that follow.
organism: Canis familiaris; details: dog, in vivo, iv
Answers are plain numbers, in mg/h/L.

Use the examples below as a reference point.
smi	endpoint unit	numeric value
CCN(CC1=C(C(=O)O)N2C(=O)[C@@H](NC(=O)/C(=N\OC(C)(C)C(=O)O)c3csc(N)n3)[C@H]2SC1)C(=O)c1cc(O)c(O)c(F)c1	mg/h/L	10.9
CC(C)(O/N=C(\C(=O)N[C@@H]1C(=O)N2C(C(=O)O)=C(CNC(=O)c3cc(O)c(O)c(Br)c3)CS[C@H]12)c1csc(N)n1)C(=O)O	mg/h/L	137.1

Now examine the next entry.
Problem: Can you share its AUC? I mean this compound: "CC(C)(O/N=C(\C(=O)N[C@@H]1C(=O)N2C(C(=O)O)=C(CNC(=O)Nc3cc(O)c(O)c(Br)c3)CS[C@H]12)c1csc(N)n1)C(=O)O"
Solution: 122.3

====

system: Staphylococcus aureus; test: microbe, parasite or virus in culture
Description: Compound was tested for antimicrobial activity against Staphylococcus aureus penicillin sensitive Staphylococcus aureus (147N) strain
measured metric: MIC (µg/mL)
Answers are plain numbers, in µg/mL.

smi	target system	endpoint unit	MIC
CCn1cc(C(=O)NCC2=C(C(=O)O)N3C(=O)[C@@H](NC(=O)/C(=N\OC(C)(C)C(=O)O)c4csc(N)n4)[C@H]3SC2)c(=O)c2cc(O)c(O)cc21	Staphylococcus aureus	µg/mL	16
CC(C)(O/N=C(\C(=O)N[C@@H]1C(=O)N2C(C(=O)O)=C(CNC(=O)c3cc(O)c(O)c(Br)c3)CS[C@H]12)c1csc(N)n1)C(=O)O	Staphylococcus aureus	µg/mL	16
CCN(CC1=C(C(=O)O)N2C(=O)[C@@H](NC(=O)/C(=N\OC(C)(C)C(=O)O)c3csc(N)n3)[C@H]2SC1)C(=O)c1cc(O)c(O)c(Br)c1	Staphylococcus aureus	µg/mL	32

Kindly review the next molecule as well.
Problem: Fill in: MIC of "CCO/N=C(\C(=O)N[C@@H]1C(=O)N2C(C(=O)O)=C(CNC(=O)c3cc(O)c(O)c(Br)c3)CS[C@H]12)c1csc(N)n1" is ___
Solution: 4

====

test: physchem
Description: Dissociation constant (pKa)
Outcome: rule met for pKa of at least 8; rule not met for anything lower.

Below are worked cases with known answers.
smi	assigned class
CC(C)(O/N=C(\C(=O)N[C@@H]1C(=O)N2C(C(=O)O)=C(CNC(=O)c3ccc(O)c(O)c3)CS[C@H]12)c1csc(N)n1)C(=O)O	rule met
CC(C)(O/N=C(\C(=O)N[C@@H]1C(=O)N2C(C(=O)O)=C(CNC(=O)c3cc(O)c(O)c(O)c3)CS[C@H]12)c1csc(N)n1)C(=O)O	rule met
CCN(CC1=C(C(=O)O)N2C(=O)[C@@H](NC(=O)/C(=N\OC(C)(C)C(=O)O)c3csc(N)n3)[C@H]2SC1)C(=O)c1cc(O)c(O)c([N+](=O)[O-])c1	rule not met

Problem: Could you tell me if the measured pKa of "CCN(CC1=C(C(=O)O)N2C(=O)[C@@H](NC(=O)/C(=N\OC(C)(C)C(=O)O)c3csc(N)n3)[C@H]2SC1)C(=O)c1cc(O)c(O)c(C#N)c1" reaches 8 or more?
Solution: rule not met

Problem: Next record, please: "CC(C)(O/N=C(\C(=O)N[C@@H]1C(=O)N2C(C(=O)O)=C(COC(=O)c3cc(O)c(O)c(Br)c3)CS[C@H]12)c1csc(N)n1)C(=O)O"
Solution: rule not met

Problem: Same for "CC(C)(O/N=C(\C(=O)N[C@@H]1C(=O)N2C(C(=O)O)=C(/C=C/c3cc(O)c(O)c(Br)c3)CS[C@H]12)c1csc(N)n1)C(=O)O"
Solution: rule not met

Problem: Same question for "CCO/N=C(\C(=O)N[C@@H]1C(=O)N2C(C(=O)O)=C(CNC(=O)c3cc(O)c(O)c(F)c3)CS[C@H]12)c1csc(N)n1" please.
Solution: rule not met

Problem: Entry "CCN(CC1=C(C(=O)O)N2C(=O)[C@@H](NC(=O)/C(=N\OC(C)(C)C(=O)O)c3csc(N)n3)[C@H]2SC1)C(=O)c1cc(O)c(O)c(Cl)c1" please
Solution: rule not met

Problem: Try "CCO/N=C(\C(=O)N[C@@H]1C(=O)N2C(C(=O)O)=C(CNC(=O)c3ccc(O)c(O)c3)CS[C@H]12)c1csc(N)n1" next.
Solution: rule met

Problem: // next record "CCOC(=O)c1nc2cc(O)c(O)cc2nc1C(=O)NCC1=C(C(=O)O)N2C(=O)[C@@H](NC(=O)/C(=N\OC(C)(C)C(=O)O)c3csc(N)n3)[C@H]2SC1"
Solution: rule not met

Problem: For "CCO/N=C(\C(=O)N[C@@H]1C(=O)N2C(C(=O)O)=C(CNC(=O)c3cc(Cl)c(O)c(O)c3Cl)CS[C@H]12)c1csc(N)n1" then?
Solution: rule not met

====

tested on: Pseudomonas aeruginosa; assay: microbe, parasite or virus in culture
Description: Compound was tested for antimicrobial activity against Pseudomonas aeruginosa constitutive derepressed type I beta-lactamase producer (18SH) strain
measured metric: MIC (µg/mL)
Answers are plain numbers, in µg/mL.

molecule	endpoint unit	MIC
CC(C)(O/N=C(\C(=O)N[C@@H]1C(=O)N2C(C(=O)O)=C(CNC(=O)c3cc(O)c(O)c(O)c3)CS[C@H]12)c1csc(N)n1)C(=O)O	µg/mL	8.1

Hey, quick one: what's MIC for each of these?
1. CC(C)(O/N=C(\C(=O)N[C@@H]1C(=O)N2C(C(=O)[O-])=C(C[n+]3ccccc3)CS[C@H]12)c1csc(N)n1)C(=O)O [CEFTAZIDIME]
2. CCO/N=C(\C(=O)N[C@@H]1C(=O)N2C(C(=O)O)=C(CNC(=O)c3cc(O)c(O)c(Br)c3)CS[C@H]12)c1csc(N)n1

Solution:
[16, 4]

Could you tell me MIC for each of these molecules? They are listed below.
1. CCO/N=C(\C(=O)N[C@@H]1C(=O)N2C(C(=O)O)=C(CNC(=O)c3ccc(O)c(O)c3)CS[C@H]12)c1csc(N)n1
2. CCN(CC1=C(C(=O)O)N2C(=O)[C@@H](NC(=O)/C(=N\OC(C)(C)C(=O)O)c3csc(N)n3)[C@H]2SC1)C(=O)c1cc(O)c(O)c(Br)c1

Solution:
1: 64; 2: 0.06

Problem: Given the molecule "CC(C)(O/N=C(\C(=O)N[C@@H]1C(=O)N2C(C(=O)O)=C(CNC(=O)c3cc(O)c(O)c(Br)c3)CS[C@H]12)c1csc(N)n1)C(=O)O" , what is its reported MIC?
Solution: 0.015

====

system: Escherichia coli; experiment: microbe, parasite or virus in culture
Description: Compound was tested for antimicrobial activity against Escherichia coli DC0 strain (parent organism)
Assignment: determine reported MIC for the given compounds.

These solved cases illustrate the format of a correct answer.
smi	target system	MIC
CC(C)(O/N=C(\C(=O)N[C@@H]1C(=O)N2C(C(=O)O)=C(CNC(=O)c3ccc(O)c(O)c3)CS[C@H]12)c1csc(N)n1)C(=O)O	Escherichia coli	< 0.008 µg/mL
CC(C)(O/N=C(\C(=O)N[C@@H]1C(=O)N2C(C(=O)[O-])=C(C[n+]3ccccc3)CS[C@H]12)c1csc(N)n1)C(=O)O	Escherichia coli	0.125 µg/mL

Could you now look at the following compound, please?
Problem: Data request, read-out MIC, for "CCO/N=C(\C(=O)N[C@@H]1C(=O)N2C(C(=O)O)=C(CNC(=O)c3cc(O)c(O)c(Br)c3)CS[C@H]12)c1csc(N)n1"
Solution: < 0.008 µg/mL

====

test: in vivo; conditions: callithrix, serum, iv
Description: Serum T1/2 in marmosets (IV dose)
Lab note: cut-off is 1 h. Strictly less in half-life is 1. Exactly 1 h or more is -1.

smi	assigned class
CC(C)(O/N=C(\C(=O)N[C@@H]1C(=O)N2C(C(=O)O)=C(CNC(=O)c3cc(O)c(O)cc3F)CS[C@H]12)c1csc(N)n1)C(=O)O	-1
CC(C)(O/N=C(\C(=O)N[C@@H]1C(=O)N2C(C(=O)[O-])=C(C[n+]3ccccc3)CS[C@H]12)c1csc(N)n1)C(=O)O	1

Problem: Please determine if "CC(C)(O/N=C(\C(=O)N[C@@H]1C(=O)N2C(C(=O)O)=C(COC(=O)c3cc(O)c(O)c(Br)c3)CS[C@H]12)c1csc(N)n1)C(=O)O" is below 1 h in terms of half-life.
Solution: -1

Problem: Also need "CC(C)(O/N=C(\C(=O)N[C@@H]1C(=O)N2C(C(=O)O)=C(CNC(=O)c3cc(O)c(O)c(C#N)c3)CS[C@H]12)c1csc(N)n1)C(=O)O" , thanks.
Solution: -1

Problem: Cool, now "CCO/N=C(\C(=O)N[C@@H]1C(=O)N2C(C(=O)O)=C(CNC(=O)c3cc(Cl)c(O)c(O)c3Cl)CS[C@H]12)c1csc(N)n1"
Solution: -1

Problem: Cool, now "CCO/N=C(\C(=O)N[C@@H]1C(=O)N2C(C(=O)O)=C(CNC(=O)c3cc(O)c(O)c(Br)c3)CS[C@H]12)c1csc(N)n1"
Solution: 1

====

experiment: physchem
measured metric: pKa

For each entry beneath this line, provide reported pKa.
1. CCO/N=C(\C(=O)N[C@@H]1C(=O)N2C(C(=O)O)=C(CNC(=O)c3cc(O)c(O)c(Br)c3)CS[C@H]12)c1csc(N)n1
2. CC(C)(O/N=C(\C(=O)N[C@@H]1C(=O)N2C(C(=O)O)=C(CNC(=O)c3cc(O)c(O)c(Br)c3)CS[C@H]12)c1csc(N)n1)C(=O)O

Solution:
6.9
6.9
